Biological target: human GABAA α1β2γ1 receptor (Homo sapiens (Human), UniProt P14867+Q8N1C3)
Test: Radioligand binding assay, [3H]RO7239181 competition, γ1-containing GABAA subtypes
Conditions: HEK293F membranes, [3H]RO7239181 20-30 nM, mean of two determinations
Endpoint: pKi
The value called pKi is obtained by taking minus log10 of the concentration in mol/L.

Please review the entries below; each comes with its answer.
C[C@@H]1N=C(c2c(F)cccc2F)c2c(ccc(Cl)c2Br)-n2c(-c3cccnn3)nnc21 = 7.63
C[C@@H]1N=C(c2c(F)cccc2F)c2c(ccc(Cl)c2Br)-n2c(-c3ccn(C)n3)nnc21 = 7.00

Note to self: pKi recorded for C[C@@H]1N=C(c2c(F)cccc2F)c2c(ccc(Cl)c2Cl)-n2c1n[nH]c2=O was 7.94

* * *

Molecular target: human GABAA α2β2γ1 receptor (Homo sapiens (Human), UniProt P47869+Q8N1C3)
Experiment: Radioligand binding assay, [3H]RO7239181 competition, γ1-containing GABAA subtypes
Conditions: Log[Ki α1β3γ2 (nM)/Ki α2β2γ1 (nM)]
Procedure: The affinity of compounds at GABAA γ1 subunit-containing receptors was measured by competition for [^3H]RO7239181 (67.3 Ci/mmol; Roche) binding to membranes from HEK293F cells (ThermoFisher R79007) expressing human (transiently transfected) receptors of composition α5β2γ1, α2β2γ1, α1β2γ1. […]
The entries below are paired with their reported LogSel.
A bare number is all that is needed in reply.

Here are 2 compounds together with their reported answers.
COC[C@@H]1N=C(c2c(F)cccc2F)c2c(ccc(C(F)(F)F)c2Cl)-n2c(C)nnc21 = 1.87
Cc1nnc2n1-c1ccc(C(F)(F)F)c(Cl)c1C(c1c(F)cccc1F)=N[C@H]2CO = 2.03

// field: LogSel; key: C[C@@H]1N=C(c2c(F)cccc2F)c2c(ccc(Cl)c2Br)-n2c(-c3ccn(C)n3)nnc21 ; value = 1.63

Reported LogSel of C[C@@H]1N=C(c2c(F)cccc2F)c2c(ccc(C(F)(F)F)c2Cl)-n2cnnc21 : 1.71

* * *

Target: human GABAA α2β2γ1 receptor (Homo sapiens (Human), UniProt P47869+Q8N1C3)
Experiment: Radioligand binding assay, [3H]RO7239181 competition, γ1-containing GABAA subtypes
Settings: HEK293F membranes, [3H]RO7239181 20-30 nM, mean of two determinations; read-out: Ki h-GABAA α2β2γ1
pKi: −log10 of the molar value.
Rule: pKi under 8 gives FALSE, otherwise TRUE.

Example results:
Cc1nnc2n1-c1ccc(C(F)(F)F)c(Cl)c1C(c1c(F)cccc1F)=N[C@H]2C = FALSE
Cc1nnc2n1-c1ccc(Br)c(Cl)c1C(c1c(F)cccc1F)=N[C@H]2CO = FALSE
Cc1nnc2n1-c1ccc(Br)c(Cl)c1C(c1ncccc1F)=N[C@H]2C = FALSE
OC1N=C(c2ccccc2F)c2c(ccc(Br)c2Cl)-n2c(-c3cccnn3)nnc21 (centres unmarked) = FALSE
C[C@@H]1N=C(c2ncccc2F)c2c(ccc(Cl)c2Cl)-n2c(C3CC3)nnc21 = FALSE

Please indicate if the recorded pKi for C[C@@H]1N=C(c2c(F)cccc2F)c2c(ccc(Cl)c2Br)-n2c(-c3ccn(C)n3)nnc21 meets or exceeds 8.
FALSE

Exam item: decide whether the reported pKi for C[C@@H]1N=C(c2ncccc2F)c2c(ccc(Br)c2Cl)-n2c(C3CC3)nnc21 is at least 8.
FALSE

# check: pKi of C[C@@H]1N=C(c2ncccc2F)c2c(ccc(Cl)c2Cl)-n2c(-c3cnn(C)c3)nnc21 is greater than or equal to 8
FALSE

Entry Cc1nnc2n1-c1ccc(Cl)c(Br)c1C(c1c(F)cccc1F)=N[C@H]2C : is its pKi no less than 8?
FALSE

Given the entry Cc1nnc2n1-c1ccc(Br)c(Cl)c1C(c1c(F)cccc1F)=N[C@H]2C , answer whether its pKi meets or surpasses 8.
TRUE

Say whether C[C@@H]1N=C(c2c(F)cccc2F)c2c(ccc(Br)c2Cl)-n2cnnc21 shows pKi of 8 or more.
TRUE

Has C[C@@H]1N=C(c2c(F)cccc2F)c2c(ccc(Cl)c2Cl)-n2c(-c3cnn(C)c3)nnc21 a recorded pKi greater than or equal to 8?
TRUE

* * *

Molecular target: h-GABA-A α2β2γ1 (Homo sapiens (Human), UniProt P47869+Q8N1C3)
Assay: Two-electrode voltage clamp electrophysiology in Xenopus oocytes expressing GABAA receptors
Assay type: cell-based
Settings: % modulation of GABA EC20 = 100*(Fold increase−1), compound at 30-fold Ki
Endpoint: Efficacy (GABA)% (%)
The reply should contain only the number, in %.

Below, 3 compounds whose answers are already recorded.
Cc1nnc2n1-c1ccc(Br)c(Cl)c1C(c1ncccc1F)=N[C@H]2C [Example 85] = 114
COC[C@@H]1N=C(c2c(F)cccc2F)c2c(ccc(Br)c2Cl)-n2c(C)nnc21 [Example 100] = 64
C[C@@H]1N=C(c2c(F)cccc2F)c2c(ccc(Cl)c2Cl)-n2c(-c3cccnn3)nnc21 [Example 56] = 78

Turning to the following compound.
response.value for Cc1nnc2n1-c1ccc(Br)c(Cl)c1C(c1c(F)cccc1F)=N[C@H]2C [Example 75] (field: Efficacy (GABA)%) = 57

* * *

Biological target: human GABAA α1β2γ1 receptor (Homo sapiens (Human), UniProt P14867+Q8N1C3)
Test: Radioligand binding assay, [3H]RO7239181 competition, γ1-containing GABAA subtypes
Details: HEK293F membranes, [3H]RO7239181 20-30 nM, mean of two determinations
Procedure: The affinity of compounds at GABAA γ1 subunit-containing receptors was measured by competition for [^3H]RO7239181 (67.3 Ci/mmol; Roche) binding to membranes from HEK293F cells (ThermoFisher R79007) expressing human (transiently transfected) receptors of composition α5β2γ1, α2β2γ1, α1β2γ1. […]
Consider the following compounds and their measured Ki readings.

Example results:
C[C@@H]1N=C(c2c(F)cccc2F)c2c(ccc(Cl)c2Cl)-n2c(-c3cccnn3)nnc21 = 3.8 nM
Cc1nnc2n1-c1ccc(Br)c(Cl)c1C(c1ncccc1F)=N[C@H]2C = 63.6 nM
C[C@@H]1N=C(c2ccccc2F)c2c(ccc(Br)c2Cl)-n2cnnc21 = 65 nM

Per the record, Cc1cc(-c2nnc3n2-c2ccc(Cl)c(Cl)c2C(c2c(F)cccc2F)=N[C@H]3C)on1 has Ki of 8 nM

* * *

Biological target: human GABAA α1β2γ1 receptor (Homo sapiens (Human), UniProt P14867+Q8N1C3)
Assay: Radioligand binding assay, [3H]RO7239181 competition, γ1-containing GABAA subtypes
Details: HEK293F membranes, [3H]RO7239181 20-30 nM, mean of two determinations
Endpoint: Ki
Remember to follow the number with its unit.

C[C@@H]1N=C(c2c(F)cccc2F)c2c(ccc(Br)c2Cl)-n2cnnc21 = 9 nM
Cc1ccc2c(c1Cl)C(c1c(F)cccc1F)=N[C@@H](C)c1nnc(C)n1-2 = 33.6 nM
C[C@@H]1N=C(c2ncccc2F)c2c(ccc(Br)c2Cl)-n2c(C3CC3)nnc21 = 128 nM
C[C@@H]1N=C(c2c(F)cccc2F)c2c(ccc(Cl)c2Br)-n2c(-c3cnn(C)c3)nnc21 = 44.6 nM
OC1N=C(c2ccccc2F)c2c(ccc(Br)c2Cl)-n2c(-c3cccnn3)nnc21 (centres unmarked) = 640 nM
Cc1nnc2n1-c1ccc(Br)c(Cl)c1C(c1c(F)cccc1F)=N[C@H]2C = 8.3 nM
C[C@@H]1N=C(c2c(F)cccc2F)c2c(ccc(Cl)c2Br)-n2c1n[nH]c2=O = 106 nM

Entry C[C@@H]1N=C(c2ncccc2F)c2c(ccc(Cl)c2Cl)-n2c(-c3cnn(C)c3)nnc21 — recorded Ki = 188 nM

* * *

Target: human GABAA α1β3γ2 receptor (Homo sapiens (Human), UniProt P14867+P18507)
Assay: Radioligand binding assay, [3H]Flumazenil competition, γ2-containing GABAA subtypes
Details: HEK293F membranes, [3H]Flumazenil 1 nM, mean of two determinations; read-out: Ki h-GABAA α1β3γ2
Ki overview
API: value field is a number in nM; no unit string.

Answered cases to consult:
C[C@@H]1N=C(c2ncccc2F)c2c(ccc(Cl)c2Cl)-n2c(-c3cnn(C)c3)nnc21 = 1420
Cc1nnc2n1-c1ccc(C(F)(F)F)c(Cl)c1C(c1c(F)cccc1F)=N[C@H]2CO = 7640
Cc1nnc2n1-c1ccc(C(F)(F)F)c(Cl)c1C(c1c(F)cccc1F)=N[C@H]2C = 2230
C[C@@H]1N=C(c2c(F)cccc2F)c2c(ccc(Cl)c2Cl)-n2c1n[nH]c2=O = 602
Cc1nccc(-c2nnc3n2-c2ccc(Cl)c(Cl)c2C(c2c(F)cccc2F)=N[C@H]3C)n1 = 466

get_value(item= CCc1ccc2c(c1Cl)C(c1c(F)cccc1F)=N[C@@H](C)c1nnc(C)n1-2 , readout=Ki) returns 754

The measured Ki associated with Cc1nnc2n1-c1ccc(Br)c(Cl)c1C(c1ncccc1F)=N[C@H]2C reads 705

Please fill in: Ki reported for Cc1cc(-c2nnc3n2-c2ccc(Cl)c(Cl)c2C(c2c(F)cccc2F)=N[C@H]3C)nc(C)n1 = 473

Value of Ki reported for the compound C[C@@H]1N=C(c2c(F)cccc2F)c2c(ccc(Br)c2Cl)-n2cnnc21 is 393

Entry under test: Cc1ccc2c(c1Cl)C(c1c(F)cccc1F)=N[C@@H](C)c1nnc(C)n1-2 . Its Ki was 425

Measured Ki, C[C@@H]1N=C(c2ncccc2F)c2c(ccc(Cl)c2Cl)-n2c(C3CC3)nnc21 : 1060
